- Assay Details: Selectivity index, ratio of CC50 for human HepG2 cells to IC50 for promastigote stage of Leishmania donovani MHOM/IN/00/DEVI
- Type: toxicity
- Condition Info: read-out: Ratio CC50/IC50
For each of the compounds below, state its selectivity ratio.

[in] For O=[N+]([O-])c1c(CS(=O)(=O)c2ccccc2)nc2c(-c3ccncc3)cc(Cl)cn12 , what is its reported selectivity ratio?
[out] > 41.7

[in] For CSc1ccc(OCc2ncc([N+](=O)[O-])n2C)cc1 , what is its reported selectivity ratio?
[out] > 167

[in] For O=[N+]([O-])c1c(CS(=O)(=O)c2ccccc2)nc2c(Br)cc(Br)cn12 , what is its reported selectivity ratio?
[out] > 17.2

[in] For O=[N+]([O-])c1c(CS(=O)(=O)c2ccccc2)nc2c(-c3cccc(CO)c3)cc(Cl)cn12 , what is its reported selectivity ratio?
[out] > 19.2

Reference for the values: ChEMBL document CHEMBL4270592
